Test: Extraction of stabilizer from polyester polyurethane refinish enamel film by refluxing toluene, GC (Example 75)
Conditions: 2% by weight on resin solids, film baked 30 minutes at 60° C., stored one month, refluxing toluene one hour
measuredMetric: Percent Stabilizer Extracted (%)
Give just the number in %; leave the unit off.

The recorded Percent Stabilizer Extracted for entry `CCCCN(c1nc(NCCCCCC(=O)O)nc(N(CCCC)C2CC(C)(C)N(OC3CCCCC3)C(C)(C)C2)n1)C1CC(C)(C)N(OC2CCCCC2)C(C)(C)C1` equals 23

The recorded Percent Stabilizer Extracted for entry `CCCCCCCCON1C(C)(C)CC(N(CCCC)c2nc(NCCCCCC(=O)O)nc(N(CCCC)C3CC(C)(C)N(OCCCCCCCC)C(C)(C)C3)n2)CC1(C)C` equals 21

The recorded Percent Stabilizer Extracted for entry `CCCCN(c1nc(NCCO)nc(N(CCCC)C2CC(C)(C)N(OC3CCCCC3)C(C)(C)C2)n1)C1CC(C)(C)N(OC2CCCCC2)C(C)(C)C1` equals 0

The recorded Percent Stabilizer Extracted for entry CCCCCCCCON1C(C)(C)CC(OC(=O)CCCCCCCCC(=O)OC2CC(C)(C)N(OCCCCCCCC)C(C)(C)C2)CC1(C)C [HA 1, reference compound] equals 100

The recorded Percent Stabilizer Extracted for entry `CCCCCCCCON1C(C)(C)CC(N(CCCC)c2nc(NCCO)nc(N(CCCC)C3CC(C)(C)N(OCCCCCCCC)C(C)(C)C3)n2)CC1(C)C` equals 0
